Test system: MS2 coat protein
assayOverview: apparent KD of MS2 coat protein; designed switch direction (-1 OFF switch, 1 ON switch): -1; higher = weaker reporter binding
conditionSummary: Eterna round: R95; input ligand: FMN 200 uM
# maps each entry to its apparent KD of MS2 coat protein
measuredAttribute: apparent KD of MS2 coat protein

[[record]]
constructsequence = "GUCCUCAUGGCGCCUAAACACAUGAGGAUCACCCAUGUACAGGCUUUUUGCCGUCUUAUAAUAAAACCGAGGAUGCG [Reanaor] (puzzle: Sensor v3, turn-off variant 1)"
result = "103 nM"

[[record]]
constructsequence = "AAGAAACAUGAGGAUCACCCAUGUGAGGAUAUAGAAAGAAAGAAAAGAAAAGAAAGAACUAGAAGGCACAAAGA [JR_Exclu1_Sub030] (puzzle: Exclusion 1)"
result = "26.2 nM"

[[record]]
constructsequence = "GGUUGGCGAGGAUAUACAUGAGGAUCACCCAUGUGAGAGACAAAAGUGAGGAAGAAAAGUAGAAGGCGCUGACG [salish99_ex3_r3_022] (puzzle: Exclusion 3)"
result = "2000 nM"

